meta.source: ChEMBL document CHEMBL3046846

System: Triticum aestivum
Assay: Herbicidal activity against Triticum aestivum (wheat) at 5000 g/ha after 2 weeks
Assay type: ADME, organism-based
Conditions: in vivo, 336 h
Kindly supply the reported Activity values for the records listed here.
Numbers only; they are read as %.

# input What value of Activity has been recorded for this entry: Cc1ccc(Cl)cc1NC(=O)c1nc(C)c(C)nc1C(=O)NC(C)C
# output 30

# input Also CCC(C)NC(=O)c1nc(C)c(C)nc1C(=O)Nc1cc(F)ccc1C (racemic) ?
# output 50

# input Also CNC(=O)c1nc(C)c(C)nc1C(=O)Nc1cc(Cl)ccc1C ?
# output 10

# input Also CC[C@H](C)NC(=O)c1nc(C)c(C)nc1C(=O)Nc1cc(Cl)ccc1C ?
# output 30

# input Also CCCNC(=O)c1nc(C)c(C)nc1C(=O)Nc1cc(Cl)ccc1C ?
# output 30

# input Also CC[C@@H](C)NC(=O)c1nc(C)c(C)nc1C(=O)Nc1cc(Cl)ccc1C ?
# output 30

# input Also CCNC(=O)c1nc(C)c(C)nc1C(=O)Nc1cc(Cl)ccc1C ?
# output 10

# input Also Cc1ccc(Cl)cc1NC(=O)c1nc(C)c(C)nc1C(=O)NC(C)(C)C ?
# output 10
